ASSAY SUMMARY: Stability assay in fetal bovine serum
Type: in vitro ADME
CONDITION PARAMETERS: fetal bovine serum diluted to 25% in water; after six hours of exposure to fetal bovine serum; read-out: remaining peptide (% of initial concentration added)
Where no end group is shown, it is not given here.

{"columns": ["SUBSTANCE", "remaining at 6 h, 0.196 mg/mL"],
 "data": [
  ["ILGKILGLLKSL-NH2 [Peptide 15, ILGKILGLLKSL-NH2]", "~50%"]
]}

====

Tested on: Gram-positive bacteria, Gram-negative bacteria and fungi (twelve different strains)
ASSAY SUMMARY: Liquid growth inhibition MIC against larger panel of microorganisms (MIC average)
Assay type: cell-based
CONDITION PARAMETERS: average of MIC over twelve different strains
Where no end group is shown, it is not given here.

{"columns": ["SUBSTANCE", "TEST SYSTEM", "MIC Average"],
 "data": [
  ["ILGTILGLFKSL-NH2 [Peptide 17, ILGTILGLFKSL-NH2]", "Gram-positive bacteria, Gram-negative bacteria and fungi (twelve different strains)", "20.0 µM"],
  ["GLGTILGLLKSL-NH2 [Peptide 20, GLGTILGLLKSL-NH2]", "Gram-positive bacteria, Gram-negative bacteria and fungi (twelve different strains)", "16.7 µM"],
  ["H-ILGTILGLLKSL-NH2 [WT, ILGTILGLLKSL-NH2, reference compound]", "Gram-positive bacteria, Gram-negative bacteria and fungi (twelve different strains)", "16.2 µM"],
  ["H-ILGTILKLLKSL-NH2 [Peptide 16, ILGTILKLLKSL-NH2]", "Gram-positive bacteria, Gram-negative bacteria and fungi (twelve different strains)", "1.4 µM"],
  ["ILGTLLGLKKSL-NH2 [Peptide 13, ILGTLLGLKKSL-NH2]", "Gram-positive bacteria, Gram-negative bacteria and fungi (twelve different strains)", ">50.0 µM"],
  ["ILGKILGLLKSL-NH2 [Peptide 15, ILGKILGLLKSL-NH2]", "Gram-positive bacteria, Gram-negative bacteria and fungi (twelve different strains)", "3.3 µM"],
  ["ILGTKLGLLKSL-NH2 [Peptide 14, ILGTKLGLLKSL-NH2]", "Gram-positive bacteria, Gram-negative bacteria and fungi (twelve different strains)", ">50.0 µM"]
]}

====

Test system: HEK293 human embryonic kidney cells
ASSAY SUMMARY: Cytotoxicity assay (MTS)
Format: cell-based
CONDITION PARAMETERS: HEK293, 48 h, MTS, peptides 0-64 μmol L^−1
Where no end group is shown, it is not given here.

{"columns": ["SUBSTANCE", "DISPLAY UNIT", "VALUE MODIFIER", "Cytotoxicity"],
 "data": [
  ["ILGTILGLLKAL-NH2 [Peptide 11, ILGTILGLLKAL-NH2]", "µmol/L", "=", 64.0],
  ["ILATILGLLKSL-NH2 [Peptide 3, ILATILGLLKSL-NH2]", "µmol/L", ">", 64.0],
  ["GLGTILGLLKSL-NH2 [Peptide 20, GLGTILGLLKSL-NH2]", "µmol/L", ">", 64.0],
  ["ILGTILALLKSL-NH2 [Peptide 7, ILGTILALLKSL-NH2]", "µmol/L", "=", 32.0],
  ["H-ILGTILGLLKSL-NH2 [WT, ILGTILGLLKSL-NH2, reference compound]", "µmol/L", "=", 32.0],
  ["H-ILGTILKLLKSL-NH2 [Peptide 16, ILGTILKLLKSL-NH2]", "µmol/L", "=", 16.0],
  ["ILGTALGLLKSL-NH2 [Peptide 5, ILGTALGLLKSL-NH2]", "µmol/L", ">", 64.0],
  ["ILGKILGLLKSL-NH2 [Peptide 15, ILGKILGLLKSL-NH2]", "µmol/L", "=", 32.0]
]}
